- ASSAY_OVERVIEW: Half life in rat at 1 mg/kg, iv
- Format: ADME, organism-based
- Set-up: dose 1 mg/kg, route intravenous
- TEST_CONDITIONS: in vivo
METRIC: half-life (h)

{"columns": ["COMPOUND", "RECORDED_MEASUREMENT"],
 "data": [
  ["O=C(C(=O)N1CCN(C(=O)c2ccccc2)CC1)c1c[nH]c2c(-c3cnco3)ccc(F)c12", 1.08],
  ["O=C(C(=O)N1CCN(C(=O)c2ccccc2)CC1)c1c[nH]c2c(-c3nnc[nH]3)ccc(F)c12", 3.12]
]}

(a) O=C(C(=O)N1CCN(C(=O)c2ccccc2)CC1)c1c[nH]c2c(-c3nn[nH]n3)ccc(F)c12
(b) O=C(C(=O)N1CCN(C(=O)c2ccccc2)CC1)c1c[nH]c2c(-c3ncon3)ccc(F)c12
Field: lower recorded half-life (choose a or b ) Identify your pick by its label.
a
(a: 1.12 h, b: 2 h)

====

// half-life lookup, one value per entry
- ASSAY_OVERVIEW: Half life in human liver microsomes
- Assay type: ADME, Microsome

Reference set (2 entries):
{"columns": ["COMPOUND", "METRIC", "RECORDED_MEASUREMENT"],
 "data": [
  ["O=C(C(=O)N1CCN(C(=O)c2ccccc2)CC1)c1c[nH]c2cccc(F)c12", "half-life", "> 1.67 h"],
  ["O=C(C(=O)N1CCN(C(=O)c2ccccc2)CC1)c1c[nH]c2c(-c3nn[nH]n3)ccc(F)c12", "half-life", "> 3.33 h"]
]}

Quick check: half-life of `C[C@@H]1CN(C(=O)c2ccccc2)CCN1C(=O)C(=O)c1c[nH]c2c(-c3nn[nH]n3)ccc(F)c12` ?
> 1.67 h

====

- ASSAY_OVERVIEW: Cytotoxicity against human HeLa CD4+ CCR5+ cells after 6 days by XTT assay
- Assay type: cell-based
Each item that follows carries a reported CC50 at 144 h.
# number only, unit µM dropped from output

{"columns": ["COMPOUND", "METRIC", "RECORDED_MEASUREMENT"],
 "data": [
  ["NC(=O)c1nc(-c2ccc(F)c3c(C(=O)C(=O)N4CCN(C(=O)c5ccccc5)CC4)c[nH]c23)no1", "CC50 at 144 h", 154],
  ["O=C(C(=O)N1CCN(C(=O)c2ccccc2)CC1)c1c[nH]c2c(-c3cccs3)ccc(F)c12", "CC50 at 144 h", 5.3],
  ["COc1nc(-c2ccc(F)c3c(C(=O)C(=O)N4CCN(C(=O)c5ccccc5)CC4)c[nH]c23)no1", "CC50 at 144 h", 44]
]}

Kindly review the next molecule as well.
Report CC50 at 144 h for `O=C(C(=O)N1CCN(C(=O)c2ccccc2)CC1)c1c[nH]c2c(-c3ccccn3)ccc(F)c12` please.
17

====

- ASSAY_OVERVIEW: Cytotoxicity against human HeLa CD4+ CCR5+ cells after 6 days by XTT assay
- Assay type: cell-based
METRIC: CC50 at 144 h (µM)
Reply numerically in µM, unit not repeated.

{"columns": ["COMPOUND", "CC50 at 144 h [µM]"],
 "data": [
  ["O=C(C(=O)N1CCN(C(=O)c2ccccc2)CC1)c1c[nH]c2c(-c3nc4ccccc4o3)ccc(F)c12", 27],
  ["O=C(C(=O)N1CCN(C(=O)c2ccccc2)CC1)c1c[nH]c2c(-c3ccsc3)ccc(F)c12", 27],
  ["COc1ccc(-c2ccc(F)c3c(C(=O)C(=O)N4CCN(C(=O)c5ccccc5)CC4)c[nH]c23)cc1", 21],
  ["O=C(C(=O)N1CCN(C(=O)c2ccccc2)CC1)c1c[nH]c2c(-c3nnc[nH]3)ccc(F)c12", 199],
  ["O=C(C(=O)N1CCN(C(=O)c2ccccc2)CC1)c1c[nH]c2c(-c3ncco3)ccc(F)c12", 192]
]}

If you can, please state the reported CC50 at 144 h value of `Nc1nc(-c2ccc(F)c3c(C(=O)C(=O)N4CCN(C(=O)c5ccccc5)CC4)c[nH]c23)no1` .
43

Look at this compound and give its reported CC50 at 144 h. `O=C(C(=O)N1CCN(C(=O)c2ccccc2)CC1)c1c[nH]c2c(-c3nccs3)ccc(F)c12`
23

What value of measured CC50 at 144 h is listed for `O=C(C(=O)N1CCN(C(=O)c2ccccc2)CC1)c1c[nH]c2c(-c3cccnc3)ccc(F)c12` ?
10

Fill in the blank: the reported CC50 at 144 h of `O=C(C(=O)N1CCN(C(=O)c2ccccc2)CC1)c1c[nH]c2ccccc12` is ____.
275

Can you look up the measured CC50 at 144 h of `O=C(C(=O)N1CCN(C(=O)c2ccccc2)CC1)c1c[nH]c2c(-c3nc4ccccc4[nH]3)ccc(F)c12` for me?
11

For the compound shown here, `CN(C)c1nc(-c2ccc(F)c3c(C(=O)C(=O)N4CCN(C(=O)c5ccccc5)CC4)c[nH]c23)no1` , give the reported CC50 at 144 h.
23

====

- ASSAY_OVERVIEW: Cytotoxicity against human HeLa CD4+ CCR5+ cells after 6 days by XTT assay
- Assay type: cell-based
METRIC: CC50 at 144 h

Here are 2 molecules together with their reported answers.
{"columns": ["COMPOUND", "RECORDED_MEASUREMENT"],
 "data": [
  ["O=C(C(=O)N1CCN(C(=O)c2ccccc2)CC1)c1c[nH]c2c(-c3nnco3)ccc(F)c12", "> 300 µM"],
  ["C[C@@H]1CN(C(=O)c2ccccc2)CCN1C(=O)C(=O)c1c[nH]c2c(-c3nn[nH]n3)ccc(F)c12", "> 300 µM"]
]}

Next up:
Quick check: CC50 at 144 h of `Cc1noc(-c2ccc(F)c3c(C(=O)C(=O)N4CCN(C(=O)c5ccccc5)CC4)c[nH]c23)n1` ?
> 300 µM

====

- ASSAY_OVERVIEW: Cytotoxicity against human HeLa CD4+ CCR5+ cells after 6 days by XTT assay
- Format: cell-based
METRIC: CC50 at 144 h

{"columns": ["COMPOUND", "CC50 at 144 h"],
 "data": [
  ["O=C(C(=O)N1CCN(C(=O)c2ccccc2)CC1)c1c[nH]c2c(-c3cnc[nH]3)ccc(F)c12", "> 300 µM"],
  ["O=C(C(=O)N1CCN(C(=O)c2ccccc2)CC1)c1c[nH]c2cccc(F)c12", "> 300 µM"]
]}

Kindly consider the entry below.
Fill in the blank: the reported CC50 at 144 h of `O=C(C(=O)N1CCN(C(=O)c2ccccc2)CC1)c1c[nH]c2c(-c3cnco3)ccc(F)c12` is ____.
> 300 µM
